target.desc: T1, mouse CD47 (mouse) (UniProt Q61735)
T1 sequence (looked up): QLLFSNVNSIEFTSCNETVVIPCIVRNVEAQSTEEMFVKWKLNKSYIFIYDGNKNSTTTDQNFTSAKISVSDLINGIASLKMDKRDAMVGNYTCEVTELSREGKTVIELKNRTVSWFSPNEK
assay.name: ELISA, coated mouse CD47 ECD Fc, supernatant, anti-c-Myc HRP
measurement.name: mCD47 binding (OD)
Value expressed in OD; do not type the unit.

Look up and state reported mCD47 binding (OD) for 4RP13-3-4D (designed binder) hSIRPα IgV domain mutant: EEELQVIQPDKSVSVAAGESAILHCTVTSLLPVGPIQWFRGAGPARELIYNQKSKVFPRVTTVSESTKRRNMDFSISISNITPADAGTYYCVKFRKGSPDTEFKSGAGTELSVRAKPS
0.173

Given 2R-1-10B (designed binder) hSIRPα IgV domain mutant: EEELQVIQPDKSVSVAAGESAILHCTVTSLIPVGPIQWFRGAGPARELIYNQKNLIFPRVTTVSESGKRENMDFSISISNITPADAGTYYCVKFRKGSPDTEFKSGAGTELSVRAKPS , respond with its mCD47 binding (OD).
0.086

Given 4RP13-3-7B (designed binder) hSIRPα IgV domain mutant: EEELQVIQPDKSVSVAAGESAILTCTVTSLYPVGPIQWFRGAGPARELIYNQKRQTFPRVTTVSESTKRFNMDFSISISNITPADAGTYYCVKFRKGSPDTEFKSGAGTELSVRAKPS , respond with its mCD47 binding (OD).
0.152
